Molecular target: human catalytic domain HDAC4 protein (amino acids 648-1032) (Homo sapiens (Human), UniProt P56524)
Sequence (P56524 648-1032): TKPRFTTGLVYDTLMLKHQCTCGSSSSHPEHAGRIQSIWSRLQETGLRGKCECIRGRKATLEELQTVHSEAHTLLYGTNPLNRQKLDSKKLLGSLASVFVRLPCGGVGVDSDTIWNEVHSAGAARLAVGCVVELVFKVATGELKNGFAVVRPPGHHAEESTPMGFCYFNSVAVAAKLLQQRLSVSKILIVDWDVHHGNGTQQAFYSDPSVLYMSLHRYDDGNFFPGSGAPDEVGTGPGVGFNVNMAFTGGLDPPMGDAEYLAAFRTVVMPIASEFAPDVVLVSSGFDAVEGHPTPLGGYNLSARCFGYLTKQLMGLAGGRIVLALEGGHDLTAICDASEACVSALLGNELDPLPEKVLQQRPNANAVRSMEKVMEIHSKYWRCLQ
Assay: Inhibition of HDAC4 catalytic domain enzymatic activity, fluorogenic substrate Boc-Lys(Tfa)-AMC
Conditions: read-out: Biochemical HDAC-4 IC50
Excerpt: Analysis of Inhibition of HDAC4 with Class IIa Histone Deacetylase (HDAC) Inhibitors The potency of Class IIa Histone Deacetylase (HDAC) inhibitors is quantified by measuring the Histone Deacetylase 4 (HDAC4) catalytic domain enzymatic activity using the fluorogenic substrate, Boc-Lys(Tfa)-AMC. The substrate is deacetylated to Boc-Lys-AMC by HDAC4. […] The fluorescence of the sample is directly related to the histone deacetylase activity in the sample. […]
pIC50: −log10 of the molar value.
reported-metric: pIC50

Examples with their reported pIC50 follow.
{"compound": "Cc1c(F)cccc1[C@@]1(C(=O)NO)C=C(c2ccc3nc(C(F)(F)F)cnc3c2)CC1 [Example 20]", "pIC50": 7.15}
{"compound": "Cc1c(F)cccc1[C@@]1(C(=O)NO)C=C(c2ccc3scnc3c2)CC1 [Example 40]", "pIC50": 8.00}
{"compound": "O=C(NO)C1(c2ccccc2F)CC=CC1 [Example 31]", "pIC50": 5.08}
{"compound": "O=C(NO)[C@]1(c2ccccc2)C=C(c2cncc(F)c2)CC1 [Example 35]", "pIC50": 6.47}
{"compound": "Cc1c(F)cccc1[C@@]1(C(=O)NO)C=C(c2cncnc2)CC1 [Example 14]", "pIC50": 7.52}

P. Cc1c(F)cccc1[C@@]1(C(=O)NO)C=C(c2cnn(CC(F)(F)F)c2)CC1 [Example 28]
Q. Cc1ncccc1C1=C[C@](C(=O)NO)(c2cccc(F)c2C)CC1 [Example 37]
Task: Between these two entries, P and Q , state which has the higher pIC50. Respond with the label that goes with your answer.
Output: Q
(Q: 8.00, P: 7.70)

a. O=C(NO)C1(c2ccccc2)CC=C(c2cncc(F)c2)CC1 (stereo not drawn) [Example 43]
b. O=C(NO)[C@]1(c2ccccc2)C=C(c2ccccc2)CC1 [Example 33]
Task: I'm curious whether a or b has the smaller pIC50 number. Which is it? Respond with the label that goes with your answer.
Output: a
